Listed here are molecules together with their documented composite z-score.
ASSAY PROTOCOL: probe aLefty1 binding on compound microarray – biochemical, small-molecule microarray, 635/667 nm fluorescence, primary screen (AID 1153);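 note: score merges spot fluorescence with signal-to-noise ratio from the scanned slide images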
CONDITIONS: higher = more signal

SMILES REPR: COCCn1c(C(=O)N(C)C)cc2c1C[C@H]1CN(C(=O)c3ccccc3)[C@@](Cc3ccc(OC)cc3)(C(=O)OC)[C@@H]21
composite z-score: 0.256
//
SMILES REPR: C=CCNC(=O)[C@H]1[C@@H]2C(=O)O[C@@H](c3ccccc3)[C@@H](c3ccccc3)N2[C@@H](c2ccc(OCCO)cc2)[C@]12C(=O)Nc1ccc(C#CC3(O)CCCCCC3)cc12
composite z-score: 0.523
//
SMILES REPR: O=C1C[C@]2(c3ccc([N+](=O)[O-])cc3)C(=O)N(C3CC3)c3cc(CO)ccc3[C@H]2N1C1CCCCC1
composite z-score: 0.91

---

ASSAY PROTOCOL: compound effects on differentiated 3T3-L1 adipocyte viability – cell-based, 3T3-L1 adipocytes, calcein-AM fluorescence, 48 h, basal, profiling panel (AID 1163); note: test concentration not given here
CONDITIONS: 3T3-L1 adipocytes viability, higher = more signal

MOLECULE: [N-]=[N+]=Nc1ccccc1C[C@]1(C(=O)N2CCOCC2)N=C(c2ccc(OCCCO)cc2)O[C@H]1c1ccccc1N=[N+]=[N-]
z-score: 0.744
//
MOLECULE: COC(=O)[C@@]1(Cc2ccccc2)[C@H]2c3cc(C(=O)N(C)C)n(CCO)c3C[C@H]2CN1C(=O)c1ccccc1
z-score: 0.18
//
MOLECULE: COCCOC(=O)N1C(=O)[C@@]2(c3cc(C#CCC(C(=O)OC)C(=O)OC)ccc31)[C@H](C(=O)Nc1nc3ccccc3s1)[C@H]1C(=O)O[C@H](c3ccccc3)[C@H](c3ccccc3)N1[C@@H]2c1ccc(OCCO)cc1
z-score: 0.502
//
MOLECULE: COC(=O)[C@@]1(Cc2ccc(OC)cc2)[C@H]2c3cc(C(=O)N4CCCC4)n(CCn4cc([N+](=O)[O-])nc4C)c3C[C@H]2CN1C(=O)c1ccccc1
z-score: 0.936
//
MOLECULE: COCCCNC(=O)[C@@]1(CCC(=O)OC(C)(C)C)COC(c2ccc(OCCCO)cc2)=N1
z-score: 0.129
//
MOLECULE: CC1CC/C=C\[C@H]2OC34C=CCN(Cc5ccccc5)C(=O)[C@H]3N(CCCCCCO)C(=O)[C@@H]4C2C(=O)O1 (stereo partly specified)
z-score: 0.221
//
MOLECULE: CC(C)C(CO)N1C(=O)[C@@H]2C3C(=O)OCCC/C=C\[C@H]3OC23C=CCN(Cc2ccccc2)C(=O)[C@@H]13 (stereo partly specified)
z-score: -0.0826
//
MOLECULE: COCCOC(=O)N1C(=O)[C@@]2(c3ccccc31)[C@H](c1ccc(O)cc1)N1[C@H](c3ccccc3)[C@H](c3ccccc3)OC(=O)[C@H]1[C@@H]2C(=O)N1CCCCCCC1
z-score: -0.688
//
MOLECULE: N#Cc1ccc(C(O)C2C=CC3C(=O)NC(=O)C3N2Nc2ccc(Cl)cc2Cl)cc1 (stereo unspecified)
z-score: 0.325
//
MOLECULE: C=CCOC(=O)[C@@H]1[C@H]2C(=O)O[C@H](c3ccccc3)[C@H](c3ccccc3)N2[C@H](c2ccc(OCCOC(=O)[C@H]3C[C@H]4C(=O)N5CCC[C@H]5C(=O)N4[C@H]3c3cccc(OCCO)c3)cc2)[C@@]12C(=O)Nc1ccc(I)cc12
z-score: -0.506
//
MOLECULE: Cc1ccc(S[C@]2(C(=O)NCc3ccccc3)CC(=O)N(Cc3ccccc3C(F)(F)F)[C@@H]2c2ccc(CO)cc2)cc1
z-score: 0.269
//
MOLECULE: C=CC[C@@]1(C(=O)N(C)C)N=C(c2ccc(OCCCO)cc2)O[C@@H]1c1ccccc1CN=[N+]=[N-]
z-score: -0.114
//
MOLECULE: CN1C(=O)[C@@H]2[C@@H](CC(COc3ccccc3)=C3[C@@H](CCc4ccccc4)OB(O)C[C@@H]32)C1=O
z-score: -0.477
//
MOLECULE: [N-]=[N+]=Nc1ccccc1[C@H]1OC(c2ccc(OCCCO)cc2)=N[C@@]1(Cc1ccccc1)C(=O)NCC(O)CO (stereo partly specified)
z-score: 0.405
//
MOLECULE: CC1=C([C@H](O)CCc2ccccc2)[C@H](CO)n2c(=O)n(-c3ccccc3)c(=O)n2C1
z-score: 0.273
//
MOLECULE: C[N+](C)(C)CCCC[C@@H]1NC(=O)[C@@H]2C[C@H](C(=O)NCc3ccc(F)cc3)[C@H](c3ccc(O)cc3)N2C1=O
z-score: -0.335
//
MOLECULE: COc1ccc(C(=O)Nc2ccc3c(c2)[C@@]2(O[C@H](CCO)[C@@H]([Si](C)(C)c4ccc(OC)cc4)[C@@H]2C)C(=O)N3Cc2ccccc2)cc1
z-score: 1.38
//
MOLECULE: CC(C)(C)N1CC=CC23O[C@@H]4C=CCCOC(=O)C4[C@H]2C(=O)N(CCCCCCO)[C@@H]3C1=O (stereo partly specified)
z-score: -2.98
//
MOLECULE: NC(=O)N1C(=O)C2C(C1=O)C1C=C(CCCO)C2C(c2ccc(CN3CCCC3)cc2)N1Cc1sc2ccccc2c1Cl (stereo unspecified)
z-score: -0.501
//
MOLECULE: CC1CC/C=C\[C@H]2OC34C=CCN(C(C)(C)C)C(=O)[C@H]3N(CCCO)C(=O)[C@@H]4C2C(=O)O1 (stereo partly specified)
z-score: 0.0593
//
MOLECULE: COCCOC(=O)N1C(=O)[C@@]2(c3cc(C#CCCO)ccc31)[C@H](C(N)=O)[C@H]1C(=O)O[C@H](c3ccccc3)[C@H](c3ccccc3)N1[C@@H]2c1ccccc1OCCO
z-score: -0.0387

Taken from PubChem BioAssay.
